System: HepG2
Assay summary: cytotoxicity call (relative viability < 0.9)
Condition: 10 µM
Among all 39,000 compounds or so, about 3,300 (8.5%) were called active. Only a selection was taken, and actives are over-represented in it overall.
Outcomes: active, inactive

[[record]]
structure = "C[C@@H]1CN([C@H](C)CO)C(=O)CCCn2nncc2CO[C@@H]1CN(C)S(=O)(=O)c1cn(C)cn1"
assigned_class = "inactive"

[[record]]
structure = "O=C(C[C@H]1CC[C@@H](NC(=O)CN2CCOCC2)[C@@H](CO)O1)NC1CCC1"
assigned_class = "inactive"

[[record]]
structure = "Cc1ccc2nc(-c3ccc(/N=C\\c4ccc[nH]4)cc3)sc2c1"
assigned_class = "active"

[[record]]
structure = "COc1cccc(S(=O)(=O)N(C)C[C@@H]2Oc3cc(C4=CCCC4)ccc3S(=O)(=O)N([C@@H](C)CO)C[C@H]2C)c1"
assigned_class = "inactive"

[[record]]
structure = "COc1ccc(S(=O)(=O)N[C@@H]2C=C[C@@H](CC(=O)N3CCN(c4ccccc4)CC3)O[C@H]2CO)cc1"
assigned_class = "inactive"

[[record]]
structure = "C[C@@H]1CN([C@H](C)CO)C(=O)c2cccc(NC(=O)c3cnccn3)c2O[C@@H]1CN(C)S(=O)(=O)c1cccs1"
assigned_class = "inactive"

[[record]]
structure = "C[C@H]1CN([C@@H](C)CO)C(=O)Cc2cc(NC(=O)Nc3ccc4c(c3)OCO4)ccc2O[C@@H]1CN(C)S(C)(=O)=O"
assigned_class = "inactive"

[[record]]
structure = "COC(=O)CCCCCCC(=O)N/N=C/[C@H](O)[C@@H](O)[C@H](O)CO"
assigned_class = "inactive"

